This section presents compounds with their documented inhibition at 25 µg/mL values.
- ASSAY_COMMENT: Antitumor activity against mouse EAC cells assessed as inhibition of cell viability at 25 ug/ml after 2 hrs by trypan blue exclusion assay
- Format: functional
- MEASUREMENT_CONDITIONS: Ehrlich
Report the figure in % without appending any unit label.

# annotated cases, reported inhibition at 25 µg/mL shown
| GIVEN_SMILES | inhibition at 25 µg/mL (%) |
| --- | --- |
| NNc1nnc2c(n1)n(-c1ccc(Cl)cc1)c(=O)n2-c1ccc(Cl)cc1 | 95 |
| O=C1N(c2ccc(Cl)cc2)CC(=S)N1c1ccc(Cl)cc1 | 90 |

So what does the record say about inhibition at 25 µg/mL for N=C1C(=S)N(c2ccc(Br)cc2)C(=S)N1c1ccc(Br)cc1 ? 50

So what does the record say about inhibition at 25 µg/mL for CCOc1ccc(N2C(=O)N(c3c(CC)cc(Cc4cc(CC)c(N5C(=N)C(=S)N(c6ccc(OCC)cc6)C5=O)c(CC)c4)cc3CC)C(=N)C2=S)cc1 ? 60

So what does the record say about inhibition at 25 µg/mL for Cc1ccc(-n2c(=O)n(-c3ccc(Cl)cc3)c3nc4cc(C)ccc4nc32)cc1 ? 35

So what does the record say about inhibition at 25 µg/mL for O=c1n(-c2ccc(Cl)cc2)c2nc3ccccc3nc2n1-c1ccc(Cl)c(Cl)c1 ? 30

====

This section presents compounds with their documented MIC values.
- System: Klebsiella pneumoniae
- ASSAY_COMMENT: Antimicrobial activity against Klebsiella pneumoniae NCIMB 9111 by macrotube dilution assay
- Type: functional

# annotated cases, reported MIC shown
| GIVEN_SMILES | TARGET_OR_SYSTEM | MEASURED_PROPERTY | ENDPOINT_RESULT |
| --- | --- | --- | --- |
| O=C1N(c2ccc(Cl)cc2)CC(=S)N1c1ccc(Cl)c(Cl)c1 | Klebsiella pneumoniae | MIC | 3.9 µg/mL |
| N=C1C(=S)N(c2ccc(I)cc2)C(=S)N1c1ccc(I)cc1 | Klebsiella pneumoniae | MIC | 7.8 µg/mL |
| N#CC(=S)Nc1ccc(Cl)c(Cl)c1 | Klebsiella pneumoniae | MIC | 1.95 µg/mL |

Pending compound:
So what does the record say about MIC for N=C1C(=S)N(c2ccc(Br)cc2)C(=S)N1c1ccc(Br)cc1 ? 7.8 µg/mL

====

- Test system: Bacillus subtilis
- ASSAY_COMMENT: Antibacterial activity against Bacillus subtilis NCIB 3610 at 5 mg/ml by agar disk diffusion assay
- Format: functional
- MEASUREMENT_CONDITIONS: Bacillus subtilis, NCIB 3610; read-out: DIZ
Assign 1.0 whenever zone of inhibition at 5000 µg/mL does not fall below 20 mm; assign 0.0 whenever it does.

Please review the following examples before continuing.
| COMPOUND | ANSWER_LABEL |
| --- | --- |
| N=C1C(=S)N(c2ccc(Cl)cc2)C(=O)N1c1cccc2ccccc12 | 0.0 |
| CCOc1ccc(N2C(=O)N(c3c(CC)cc(Cc4cc(CC)c(N5C(=N)C(=S)N(c6ccc(OCC)cc6)C5=O)c(CC)c4)cc3CC)C(=N)C2=S)cc1 | 0.0 |
| N=C1C(=S)N(c2ccc(Br)cc2)C(=S)N1c1ccc(Br)cc1 | 1.0 |
| CC1OC(=N)C(=S)N1c1ccc(Cl)c(Cl)c1 (stereo not drawn) | 1.0 |
| N=C1C(=S)N(c2ccc(Cl)c(Cl)c2)C(=O)N1c1ccc(Cl)cc1 | 0.0 |

Item N=C1C(=S)N(c2ccc(I)cc2)C(=S)N1c1ccc(I)cc1 with zone of inhibition at 5000 µg/mL of 20 mm or above? 1.0
